Each recorded value in this set is attributed to PubChem BioAssay (EPA / NIEHS).

read-out: Monokine induced gamma interferon (MIG), CXCL9 (gene 4283); experiment: BSK_SAg_MIG: BioMAP Diversity Plus: SAg Assay for Monokine induced gamma interferon (MIG) Biomarker Activity (AID 2283092); settings: primary human HUVEC with PBMC; actives raise or lower the signal
Active and inactive are the calls of the source. How the source made its calls: active means hit-call score of the fitted dose curve at least 0.9, where 1 is the maximum; inactive means score below 0.9.
// allowed return values: active, inactive

Before answering, review these 5 worked examples.
molecule: CC(C)(C)c1cc(CCC(=O)NCCCCCCNC(=O)CCc2cc(C(C)(C)C)c(O)c(C(C)(C)C)c2)cc(C(C)(C)C)c1O
class: inactive
//
molecule: O=S(=O)(O)CCC(F)(F)C(F)(F)C(F)(F)C(F)(F)C(F)(F)C(F)(F)C(F)(F)C(F)(F)F
class: inactive
//
molecule: O=S(=O)(OCC(F)(F)F)C(F)(F)C(F)(F)C(F)(F)C(F)(F)F
class: inactive
//
molecule: CC(C)CCCC(C)CCO (configuration not stated)
class: inactive
//
molecule: CN(C(=O)C(F)(F)C(F)(F)C(F)(F)F)[Si](C)(C)C
class: inactive

**Query** Given Cc1cc(C)c(O)c(C(C)(C)C)c1 , state the outcome it received in this test.
**Result** inactive

**Query** Also, FC(F)(F)C(F)(F)C(F)(F)CC1CO1 (configuration not stated) please.
**Result** inactive

* * *

test: CCTE_Mundy_HCI_hNP1_Casp3_7: CCTE's Caspase-Glo 3/7 Assay in human neuroprogenitor cells for Apoptosis, Mundy Lab (AID 2284240)
Activity calls are given as the source filed them. The calls were made as follows: active = hit-call score of the fitted dose curve at least 0.9, where 1 is the maximum; inactive = score below 0.9.
property name: outcome

entry smiles: OCCCCC(F)(F)C(F)(F)C(F)(F)C(F)(F)F
outcome: inactive
--
entry smiles: NC(O)(C(F)(F)F)C(F)(F)F
outcome: inactive
--
entry smiles: O=C(O)C(F)(F)C(F)(F)C(F)(F)OC(F)(F)F
outcome: inactive
--
entry smiles: O=S(=O)(O)CCC(F)(F)C(F)(F)C(F)(F)C(F)(F)C(F)(F)C(F)(F)C(F)(F)C(F)(F)F
outcome: inactive
--
entry smiles: C=CC(=O)OCC(F)(F)C(F)(F)C(F)(F)COC(=O)C=C
outcome: inactive
--
entry smiles: OCCCC(F)(F)C(F)(F)C(F)(F)C(F)(F)C(F)(F)C(F)(F)C(F)(F)C(F)(F)F
outcome: inactive

Field: outcome. Fill in for each record below.
1. O=C(O)C(F)(F)C(F)(F)C(F)(F)OC(F)(C(F)(F)F)C(F)(F)F
2. NC(=O)C(F)(F)C(F)(F)C(F)(F)C(F)(F)C(N)=O
3. O=C(O)CCC(F)(F)C(F)(F)C(F)(F)C(F)(F)C(F)(F)C(F)(F)C(F)(F)F

**Result**
inactive
inactive
inactive

* * *

test: ATG_ERE_CIS: Attagene CIS-FACTORIAL HepG2 Assay for Estrogen Response Element (ERE) (AID 2282940); settings: HepG2 ERE cis-reporter, Attagene RNA transcript; actives raise or lower the signal
The source made the active and inactive calls. The calls were made as follows: active = hit-call score of the fitted dose curve at least 0.9, where 1 is the maximum; inactive = score below 0.9.
// allowed return values: true (active), false (inactive)

Before answering, review these 3 worked examples.
compound: O=S(=O)(OCC(F)(F)F)C(F)(F)C(F)(F)C(F)(F)C(F)(F)F
class: false
//
compound: Brc1ccccn1
class: false
//
compound: FC(F)(F)C(F)(F)C(F)(F)C(F)(F)C(F)(F)C(F)(F)CC[Si](Cl)(Cl)Cl
class: false

**Query** Given O=C=NCc1cccc(CN=C=O)c1 , state the outcome it received in this test.
**Result** false

**Query** Also, OCCCC(F)(F)C(F)(F)C(F)(F)C(F)(F)C(F)(F)C(F)(F)C(F)(F)C(F)(F)F please.
**Result** false

**Query** Also, Cc1ccc2c(c1)OCC(=O)CO2 please.
**Result** false

**Query** Also, Nc1c(Br)cc([N+](=O)[O-])cc1Br please.
**Result** false

**Query** Also, Nc1cccnc1N please.
**Result** false

**Query** Also, NC(=O)C(F)(F)C(F)(F)C(F)(F)C(F)F please.
**Result** false

**Query** Also, Cc1cccc(C)n1 please.
**Result** false

**Query** Also, CCn1c2ccccc2c2ccccc21 please.
**Result** false

**Query** Also, OCC(O)CC(F)(F)C(F)(F)C(F)(F)C(F)(F)C(F)(F)C(F)(F)C(F)(F)C(F)(F)F (stereo unspecified) please.
**Result** false

**Query** Also, O=C1C=CC(=O)N1c1ccccc1 please.
**Result** false

**Query** Also, O=C(F)C1(F)C(F)(F)C(F)(F)C(F)(F)C(F)(F)C1(F)F please.
**Result** false

**Query** Also, CCC/C=C/CO please.
**Result** false

**Query** Also, CCOC(OCC)OCC please.
**Result** false

**Query** Also, OCC(F)(F)C(F)(F)C(F)(F)CO please.
**Result** false

**Query** Also, O=S(=O)(Cl)C(F)(F)C(F)(F)C(F)(F)C(F)(F)C(F)(F)C(F)(F)C(F)(F)C(F)(F)F please.
**Result** true

**Query** Also, FC(F)(F)C(F)(F)C(F)(F)CC1CO1 (stereo unspecified) please.
**Result** false
